# assay target: mouse PPARγ ligand-binding site (Mus musculus, UniProt P37238)
# Construct: expressed in transfected cells; host or cells: CV-1 cells (African green monkey kidney)
# Sequence (P37238 204-505): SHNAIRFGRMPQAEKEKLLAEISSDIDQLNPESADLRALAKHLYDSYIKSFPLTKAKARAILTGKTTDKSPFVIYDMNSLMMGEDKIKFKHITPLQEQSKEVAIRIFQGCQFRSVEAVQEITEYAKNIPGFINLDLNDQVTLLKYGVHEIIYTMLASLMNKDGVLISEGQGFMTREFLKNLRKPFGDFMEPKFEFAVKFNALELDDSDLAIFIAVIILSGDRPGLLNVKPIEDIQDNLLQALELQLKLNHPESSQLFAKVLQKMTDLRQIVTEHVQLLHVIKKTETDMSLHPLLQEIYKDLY
# assay: Measurement of PPARγ ligand activity (GAL4 chimera luciferase reporter in CV-1 cells)
# Type: cell-based
# test settings: added concentration 10 μg/ml; CV-1 cells, 24 hours; specific activity relative to untreated control (DMSO) = 1.00
Hi there, I'd appreciate the recorded PPARγ ligand activity for every entry that follows.
Simply state the number, no unit and no words.

Provide PPARγ ligand activity, system mouse PPARγ ligand-binding site (Mus musculus, UniProt P37238), entry CC(C)=CCc1cc(C(=O)CC(=O)c2cc(CC=C(C)C)c(O)cc2O)ccc1O
3.05

Provide PPARγ ligand activity, system mouse PPARγ ligand-binding site (Mus musculus, UniProt P37238), entry COc1cc2c(c(OC)c1CC=C(C)C)C=C(c1ccc(O)cc1O)CO2
4.00

Provide PPARγ ligand activity, system mouse PPARγ ligand-binding site (Mus musculus, UniProt P37238), entry O=c1c(O)c(-c2ccc(O)c(O)c2)oc2cc(O)cc(O)c12 [Quercetin, quercetin, reference compound]
1.70

Provide PPARγ ligand activity, system mouse PPARγ ligand-binding site (Mus musculus, UniProt P37238), entry CC1(C)C=Cc2c(O)ccc(C3=Cc4ccc(O)cc4OC3)c2O1
2.89
